Field: absorption maximum. Provide a value for each of the compounds that follow.
- experimentalProtocol: solvent given as SMILES
- setupConditions: in CCO
Just the number in nm, nothing appended.

query: Quick one: absorption maximum of CC(C)=NO ?
result: 193

query: May I ask what absorption maximum has been recorded for COc1ccc2cc(-c3ccc(C(F)(F)F)cc3)oc(=O)c2c1 ?
result: 324

query: Form field: reported absorption maximum of CC(C)(C)c1cc2ccc3cc(C(C)(C)C)cc4c3c2c(c1)c(=O)n1c4nc2c3ccccc3c3ccccc3c21
result: 366

query: Given N#C[Se]CCCCCOc1ccc2ccc(=O)oc2c1 , state its recorded absorption maximum.
result: 323

query: Any idea what absorption maximum was measured for CCCCCCc1ccsc1-c1ccc(-c2sc(C(=O)O)cc2CCCCCC)s1 ?
result: 352

query: Please give the measured absorption maximum for this compound: CCC1=C(C)C2=C(c3ccc(-c4c5ccccc5c(-c5ccccc5)c5ccccc45)cc3)c3c(C)c(CC)c(C)n3[B-](F)(F)[N+]2=C1C
result: 525

query: Can you share its absorption maximum? I mean this compound: C(=C\c1ccnc2ccccc12)/c1ccc(/C=C/c2ccnc3ccccc23)cc1
result: 374

query: I would be grateful if you could share the reported absorption maximum for O=C(c1cc(F)c(O)cc1F)c1cc(F)c(O)cc1F .
result: 306

query: Look at this compound and give its reported absorption maximum. Cc1nc2c(c[n+]1C)CN1C(=O)N([C@H]3O[C@@H](CO)[C@H](O)[C@@H]3O)C=CC1=N2
result: 390

query: GET /values?readout=absorption maximum&item= Cc1c2ccncc2c(C)c2c1[nH]c1ccccc12
result: 294

* * *

- experimentalProtocol: solvent given as SMILES
- setupConditions: in CCCCCC
testReadout: absorption maximum (nm)
Give a bare numeral; the unit nm is implied.

query: Would you mind telling me what absorption maximum value was observed for COC(=O)c1ccc2ccc3cccc4ccc1c2c34 ?
result: 379

query: Requested read-out: absorption maximum. Entry: CN(C)c1ccc(/C=C/c2ccc(C#N)cc2)cc1
result: 378

query: Entry c1ccc(-n2cccc2)cc1 : reported absorption maximum = ?
result: 254

query: Field request: absorption maximum | item: O=C1C=C(Nc2ccc(F)cc2)C(=O)c2ccccc21
result: 445

query: Could you share which absorption maximum value was measured for COc1ccc2cc(-c3ccc(C(F)(F)F)cc3)oc(=O)c2c1 ?
result: 326

query: Query (molecule): COc1ccc(-c2nc3c(c4c2-c2ccc(C#N)cc2CC4)-c2ccc(C#N)cc2CC3)cc1 ; field requested: absorption maximum
result: 336

query: Return reported absorption maximum; argument: COc1ccc(-c2nc3c(c4c2-c2ccccc2CC4)-c2ccccc2CC3)cc1
result: 322

query: Consider the molecule shown here: CCN(CC)c1cccc(C=O)c1 What is its recorded absorption maximum?
result: 367

query: Would you mind telling me what absorption maximum value was observed for CC(=O)c1ccc2ccc3cccc4ccc1c2c34 ?
result: 384

query: Recorded absorption maximum for CC1=CC(C)=[N+]2C1=Cc1c3ccccc3c(C#Cc3cccs3)n1[B-]2(F)F , please?
result: 621

query: Please report the recorded absorption maximum for CN(C)c1ccc(-c2nc3c(c4c2-c2ccc(C#N)cc2CC4)-c2ccc(C#N)cc2CC3)cc1 .
result: 348

query: What value of absorption maximum has been reported for the following molecule? Cn1cccc1-c1ccc(C#N)cc1
result: 317

query: Fill in: absorption maximum of CC(C)(C)c1ccc2c(c1)sc1[n+]2[B-](F)(F)n2c(c3cccc4c(Br)ccc2c43)=N1 is ___
result: 490

query: Entry under review: CC1=N/C(=C\c2ccc(C#N)c(N(C)C)c2)C(=O)N1C . Reported absorption maximum?
result: 362

query: absorption maximum lookup needed for CC(C)[Si](C#Cc1c2nc3ccccc3nc2c(C#C[Si](C(C)C)(C(C)C)C(C)C)c2nc3c(ccc4cc5ccccc5cc43)nc12)(C(C)C)C(C)C , thanks.
result: 638

query: Using the record for O=C1c2ccccc2-c2cnccc21 , report its absorption maximum.
result: 394.16

query: Reported absorption maximum for CCC1=C(C)C2=C(c3ccc(-c4c5ccccc5c(-c5ccccc5)c5ccccc45)cc3)c3c(C)c(CC)c(C)n3[B-](F)(F)[N+]2=C1C : what is it?
result: 526

query: GET /values?readout=absorption maximum&item= CC(C)(C)c1ccc2c(c1)c1cc(C(C)(C)C)ccc1n2-c1ccc(C(=O)c2ccncc2)cc1
result: 372.17

query: Using the record for CCc1c(C)[nH]c(C2=[N+]3C(=Cc4c(C)c(CC)c(/C=C/c5ccc(N(C)C)cc5)n4[B-]3(F)F)c3ccccc32)c1C , report its absorption maximum.
result: 719

query: Given CCCSC1=[N+]2C(=C(c3ccccc3)c3ccc(SCCC)n3[B-]2(F)F)C=C1 , state its recorded absorption maximum.
result: 577

query: Form field: reported absorption maximum of CC(=O)c1nc(-c2ccc(C)cc2)oc1C
result: 272

query: # input molecule: C1=C(c2ccc(-c3cccs3)s2)CCC1 ; wanted: its absorption maximum
result: 341

* * *

Exercise: for every item that follows, state its recorded absorption maximum.
- experimentalProtocol: solvent given as SMILES
- setupConditions: in ClCCl
I only need the number, in nm, no unit after it.

query: So what's the measured absorption maximum for this one? O=C1c2cccc3c(C#CC#Cc4ccc5c6c(cccc46)C(=O)N(c4ccccc4)C5=O)ccc(c23)C(=O)N1c1ccccc1
result: 386

query: Return reported absorption maximum; argument: CCCCCCCc1cc2c(o1)=CC1=C3c4cc5oc(CCCCCCC)cc5n4[B-](F)(F)[n+]4nnn(c43)[B-](F)(F)[N+]=21
result: 685

query: Fill in the blank: the reported absorption maximum of CCN(CC)c1ccc2c(c1)oc(=O)c1c(=O)oc3cc([N+](=O)[O-])ccc3c12 is ____.
result: 494

query: Please report the recorded absorption maximum for CC(C)[Si](C#Cc1cc2c(=S)c3cc(C#C[Si](C(C)C)(C(C)C)C(C)C)cc4c(=S)c5cc(C#C[Si](C(C)C)(C(C)C)C(C)C)cc6c(=S)c(c1)c2n(c34)c65)(C(C)C)C(C)C .
result: 577

query: Reported absorption maximum, compound O=C(N/N=C/c1ccccc1O)c1cccc2ccccc12 : ____
result: 328

query: Quick check: absorption maximum of CC1=[N+]2C(=C(c3c4ccccc4c(C)c4ccccc34)c3ccc(C)n3[B-]2(F)F)C=C1 ?
result: 517

query: For the compound shown here, CC(C)[Si](C#Cc1c2cc3ccccc3cc2c(C#Cc2ccc(F)cc2)c2cc3ccccc3cc12)(C(C)C)C(C)C , give the reported absorption maximum.
result: 651

query: What does the data say about its absorption maximum? Entry: COc1ccc(-c2csc(/C(C#N)=C\Nc3ccc(C#N)cc3)n2)cc1
result: 379

query: So what's the measured absorption maximum for this one? c1ccc2c(c1)ccc1ccc3ccc4ccc5ccccc5c4c3c12
result: 435

query: Consider the compound shown here: CC(C)(C)c1ccc2c(c1)[nH]c1c3[nH]c4cc(C(C)(C)C)ccc4c3c3nsnc3c21 What is its recorded absorption maximum?
result: 411

query: Can you look up the measured absorption maximum of Cc1cc(C)c(C2=C3C=C(/C=C/C(=O)OC(C)(C)C)C=[N+]3[B-](F)(F)n3cccc32)c(C)c1 for me?
result: 538

query: Entry under review: c1ccc(-c2ccc(-c3cc(-c4ccccn4)nc(-c4ccccn4)c3)cc2)cc1 . Reported absorption maximum?
result: 291

query: What does the data say about its absorption maximum? Entry: FC(F)(F)c1ccccc1B1c2ccccc2Nc2ccccc21
result: 386

query: Fill blank: measured absorption maximum of the compound CCOC(=O)c1c(-c2cc3ccccc3oc2=O)nn(-c2cccc(C)c2)c1C(=O)OCC is ____.
result: 321

query: Value lookup for absorption maximum; key = CCc1c(C)[nH]c(C2=[N+]3C(=Cc4c(C)c(CC)c(/C=C/c5ccc(N(C)C)cc5)n4[B-]3(F)F)c3ccccc32)c1C
result: 725

query: // absorption maximum lookup, key: CCCCC(CC)Cn1c2cc(C#N)ccc2c2cc(-c3ccc(N(c4ccccc4)c4ccccc4)cc3)c(C#N)cc21 (stereo not drawn)
result: 398

query: Suppose we examine the compound CC(C)CCCC(C)CCN1C(=O)c2ccc3c(-c4ccccc4)c4c5ccc6c7c(ccc(c(-c8ccccc8)c4c4ccc(c2c34)C1=O)c75)C(=O)N(CCC(C)CCCC(C)C)C6=O (stereo not drawn) ; what absorption maximum value has been reported?
result: 630

query: What does the record list as absorption maximum for c1ccc(Cn2c3sccc3c3c4nsnc4c4c5ccsc5n(Cc5ccccc5)c4c32)cc1 ?
result: 424

query: I am curious: what absorption maximum value has been reported for N#Cc1ccc(-c2cn3cc(C#N)c[n+]3[n-]2)cc1 ?
result: 360

query: What value of absorption maximum has been reported for the following compound? O=c1oc2ccccc2c2c1c(=O)oc1c3ccccc3cc(O)c12
result: 447

query: Consider the compound c1ccc2c(c1)c1ccc3cccc4c3c1c2c1c2cccc3ccc5c6ccccc6c(c5c32)c41 and give its measured absorption maximum.
result: 625

query: What measured absorption maximum goes with CC(C)(C)c1ccc(-c2nc3c4ccc(-c5cc6ccccc6c6ccccc56)cc4c4cc(-c5cc6ccccc6c6ccccc56)ccc4c3n2-c2ccc(C(C)(C)C)cc2)cc1 ?
result: 328

query: Quick one: absorption maximum of O=c1c2cc(I)ccc2nc2n1[B-](F)(F)[n+]1ccccc1-2 ?
result: 362

query: Quick one: absorption maximum for COc1cc(/C=C/c2ncc(-c3ccncc3)o2)cc(OC)c1OC ?
result: 352

query: Looking for the measured absorption maximum of COc1ccc(-c2nc3c(c4c2-c2ccc(C#N)cc2CC4)-c2ccc(C#N)cc2CC3)cc1 , can you help?
result: 333

query: Param item = CCCCN1C(=O)C(=CC=C2N(CCCC)c3ccccc3N2CCCC)C(=O)N(CCCC)C1=S ; retrieve measured absorption maximum.
result: 456

query: Quick one: absorption maximum for CCCCc1ccc(C#Cc2ccc3nc4ccc(C#Cc5ccc(CCCC)cc5)cn4c(=O)c3c2)cc1 ?
result: 383

query: Entry O=S1(=O)c2ccc(-c3ccc(N(c4ccccc4)c4ccccc4)cc3)cc2C2(c3ccccc3-c3ccccc32)c2cc(-c3ccc(N(c4ccccc4)c4ccccc4)cc3)ccc21 has what absorption maximum?
result: 363

query: Query (compound): COc1cc(OC)cc(C2=C3C(C)=C(I)C(/C=C/c4c[nH]c5ccc([N+](=O)[O-])cc45)=[N+]3[B-](F)(F)n3c(/C=C/c4c[nH]c5ccc([N+](=O)[O-])cc45)c(I)c(C)c32)c1 ; field requested: absorption maximum
result: 690

query: Reported absorption maximum, compound c1ccc(CSc2c3ccc(=[N+]4CCCCC4)cc-3oc3cc(N4CCCCC4)ccc23)cc1 : ____
result: 598

query: Dear colleague, I am looking for the recorded absorption maximum of the following compound: CC1(C)c2ccccc2N(c2ccc(-c3nc(-c4ccccn4)n(-c4ccccc4)n3)cc2)c2ccccc21
result: 342

query: Value lookup for absorption maximum; key = COc1ccc(-c2nc3c(c4c2-c2ccccc2CC4)-c2ccccc2CC3)cc1
result: 322

query: Need absorption maximum, item c1ccc2c(c1)OB1Oc3ccccc3-c3c1c-2c1c2c3-c3ccccc3OB2Oc2ccccc2-1
result: 405
